pKi: −log10 of the molar value.
For reference, pKi measured on Histamine H3 receptor (Homo sapiens):
MEASUREMENT TYPE: pKi

>>> df
                                 test_smiles  value_relation_sign  quantitative_result
 0    CC(C)N1CCC(Oc2ccc(CN3CCN(C)CC3)cc2)CC1                    =                 9.13
 1                    N#Cc1ccc(OC2CCNCC2)cc1                    <                 5.00
 2   CC(C)N1CCC(Oc2ccc(CN3CCC(CO)CC3)cc2)CC1                    =                 9.00
 3         CC(C)N1CCC(Oc2ccc(CNC3CC3)cc2)CC1                    =                 8.79
 4          N#Cc1ccc(OC2CCN(C3CCCCC3)CC2)cc1                    =                 7.49
 5            CC(C)CN1CCC(Oc2ccc(C#N)cc2)CC1                    =                 7.18
 6  CCC(CC)N1CCN(C(=O)CCC(=O)c2ccc(Cl)cc2)CC1                    =                 9.06
 7  CC(C)N1CCC(Oc2ccc(CN3CCN(Cc4ccccc4)CC3)cc2)CC1                    =                 8.70
 8    CC(C)N1CCC(Oc2ccc(CN3CCC(O)CC3)cc2)CC1                    =                 8.85
 9      CC(C)N1CCC(Oc2ccc(CN3CCCCCC3)cc2)CC1                    =                 8.77
10  CC(C)N1CCC(Oc2ccc(CN3CCN(c4ccccc4)CC3)cc2)CC1                    =                 8.70

* * *

Molecular target: Histamine H3 receptor (Homo sapiens)
Sequence (Q9Y5N1 whole entry): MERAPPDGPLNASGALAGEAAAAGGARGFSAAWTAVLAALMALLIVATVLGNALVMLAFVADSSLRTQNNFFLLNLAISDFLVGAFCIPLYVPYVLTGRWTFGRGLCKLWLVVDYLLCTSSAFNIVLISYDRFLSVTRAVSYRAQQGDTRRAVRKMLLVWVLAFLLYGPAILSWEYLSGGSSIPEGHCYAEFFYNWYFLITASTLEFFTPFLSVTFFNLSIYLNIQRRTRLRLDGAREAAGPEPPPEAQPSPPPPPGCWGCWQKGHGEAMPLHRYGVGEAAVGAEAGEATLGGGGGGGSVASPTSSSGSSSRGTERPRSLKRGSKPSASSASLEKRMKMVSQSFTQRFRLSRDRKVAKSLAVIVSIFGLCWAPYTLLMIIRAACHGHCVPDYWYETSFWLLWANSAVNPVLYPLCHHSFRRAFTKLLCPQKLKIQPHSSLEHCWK
Assay: Mean functional activity against human H3 receptor
Conditions: read-out: pA2 (converted)
log10 of Kb values, listed per item
MEASUREMENT TYPE: log10 of Kb (log10 of the value in nM)

In [3]: df
Out[3]:
                                 test_smiles  quantitative_result
 0    CC(C)N1CCC(Oc2ccc(CN(C)CCN(C)C)cc2)CC1                -0.67
 1  CC(C)N1CCC(Oc2ccc(CN3CCC(Cc4ccccc4)CC3)cc2)CC1                -0.09
 2  CC(C)N1CCC(Oc2ccc(CN3CCN(Cc4ccccc4)CC3)cc2)CC1                -0.18
 3      CC(C)N1CCC(Oc2ccc(CN3CCCCCC3)cc2)CC1                -0.76
 4       CCCCN(C)Cc1ccc(OC2CCN(C(C)C)CC2)cc1                -0.47
 5   Cc1ccc2nc(-c3ccc(OCCCN4CCCCC4)cc3)cn2c1                 0.31
 6    CC(C)N1CCC(Oc2ccc(CN3CCN(C)CC3)cc2)CC1                -0.59
 7  CC(C)N1CCC(Oc2ccc(CN3CCN(c4ccccc4)CC3)cc2)CC1                 0.01
 8          CC(C)N1CCC(Oc2ccc(CN(C)C)cc2)CC1                 0.07
 9      CC(C)N1CCC(Oc2ccc(CNc3ccccc3)cc2)CC1                 0.43
10         CC(C)N1CCC(Oc2ccc(CNC3CC3)cc2)CC1                -0.34
11        CC(C)N1CCC(Oc2ccc(CN3CCCC3)cc2)CC1                -0.45
12        CCN(CC)Cc1ccc(OC2CCN(C(C)C)CC2)cc1                -0.33
13       CC(C)N1CCC(Oc2ccc(CN3CCCCC3)cc2)CC1                -0.90
14   CC(C)N1CCC(Oc2ccc(CN3CCC(CO)CC3)cc2)CC1                -0.59
15    CC(C)N1CCC(Oc2ccc(CN3CCC(O)CC3)cc2)CC1                -0.48
16      CC(C)N1CCC(Oc2ccc(CNc3ccccn3)cc2)CC1                -0.13
17   CC(C)N1CCC(Oc2ccc(CN3CCCN(C)CC3)cc2)CC1                -0.49
